Value source: PubChem BioAssay (EPA / NIEHS)

# method notes: VALA_TUBHUV_Agonist_CellCount: Viability Assessment in the VALA Sciences human Umbilical Vein Endothelial Tubule Formation (TUBHUV) Agonism Assay (AID 2284309)
# Method: VALA_TUBHUV_Agonist is a cell-based, multiplexed assay that uses human umbilical vein endothelial cells (HUVEC). Measurements were taken 72 hours after chemical dosing in a 96-well plate.VALA_TUBHUV_Agonist_CellCount is the one of two assay components measured from the VALA_TUBHUV_Agonist assay. It is designed to make measurements of viability, a form of viability reporter, as detected with fluorescence intensity signals by HCS Fluorescent Imaging technology. […]
Records with an inconclusive call do not appear. Calls of active or inactive are those of the source. How the source made its calls: active means hit-call score of the fitted dose curve at least 0.9, where 1 is the maximum; inconclusive means response in the unintended direction; inactive means score below 0.9.
Would you mind answering with one of these outcomes? active, inactive

Worked examples, 3 compounds total:
Nc1nc(Cl)nc2c1ncn2[C@H]1C[C@H](O)[C@@H](CO)O1 ... active
COC(=O)[C@H]1[C@H]2C[C@@H]3c4[nH]c5cc(OC)ccc5c4CCN3C[C@H]2C[C@@H](OC(=O)c2cc(OC)c(OC)c(OC)c2)[C@@H]1OC ... inactive
Cc1ccc(-c2cc(C(F)(F)F)nn2-c2ccc(S(N)(=O)=O)cc2)cc1 ... inactive

Returns: the outcome recorded for `O=C1OC(c2ccc(O)cc2)(c2ccc(O)cc2)c2ccccc21` in this assay.
inactive

* * *

# study target: Paired box protein Pax-6 (Homo sapiens) (UniProt P26367)
# Sequence (P26367 whole entry, looked up): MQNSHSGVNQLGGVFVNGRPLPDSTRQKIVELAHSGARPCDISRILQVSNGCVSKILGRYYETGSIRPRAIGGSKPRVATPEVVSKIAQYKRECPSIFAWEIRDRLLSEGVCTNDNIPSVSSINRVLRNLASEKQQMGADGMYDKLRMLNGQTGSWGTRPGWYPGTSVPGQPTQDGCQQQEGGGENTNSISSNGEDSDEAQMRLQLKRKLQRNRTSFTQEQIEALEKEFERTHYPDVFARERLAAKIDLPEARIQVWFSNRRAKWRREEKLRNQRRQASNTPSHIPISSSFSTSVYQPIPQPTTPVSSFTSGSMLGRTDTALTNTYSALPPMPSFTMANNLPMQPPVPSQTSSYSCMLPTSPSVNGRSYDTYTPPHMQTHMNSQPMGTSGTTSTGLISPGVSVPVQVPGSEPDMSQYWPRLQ
# method notes: ATG_Pax6_CIS: Attagene CIS-FACTORIAL HepG2 Assay for human Paired Box 6 (PAX6) (AID 2282956)
# test context: HepG2 CIS-FACTORIAL PAX6 reporter transcription, RNA readout; actives raise or lower the signal
Calls of active or inactive are those of the source. The calls were made as follows: active = hit-call score of the fitted dose curve at least 0.9, where 1 is the maximum; inactive = score below 0.9.
measurement kind: AC50

CC(=O)[C@@]1(O)CC[C@H]2[C@@H]3CCC4=CC(=O)CC[C@]4(C)[C@H]3CC[C@@]21C ... inactive
Cc1cc(SC2=C(O)C[C@@](CCc3ccc(N)cc3)(C(C)C)OC2=O)c(C(C)(C)C)cc1CO ... inactive
CCCCCCC(C=O)=Cc1ccccc1 ... inactive
O=C(N[C@@H](c1ccccc1)[C@@H]1CCCCN1)c1cccc(C(F)(F)F)c1Cl ... 33 µM (active)

Moving on to the next molecule.
What value of AC50 has been reported for the following molecule? `OCC(CO)n1cnc(-c2ccc(F)cc2)c1-c1ccnc(Oc2ccccc2)n1`
inactive

* * *

# Read-out: matrix metalloproteinase-3 (MMP3), MMP3 (gene 4314)
# method notes: LTEA_HepaRG_MMP3: Life Technologies and Expression Analysis (LTEA) Assay for matrix metalloproteinase-3 (MMP3) using HepaRG (AID 2283519)
# test context: mRNA level, 48 h; actives raise or lower the signal
Activity calls are given as the source filed them. How the source made its calls: active means hit-call score of the fitted dose curve at least 0.9, where 1 is the maximum; inactive means score below 0.9.
Would you mind answering with one of these outcomes? yes = active, no = inactive

O=C(O)CC(O)(CC(=O)O)C(=O)O ... no

Returns: the outcome recorded for `CCc1nc(N)nc(N)c1-c1ccc(Cl)cc1` in this assay.
no

What would you report for `CCCCCCCC(=O)OC` ?
no

What would you report for CCCCC(CC)CO (configuration not stated) ?
no

What would you report for `Cc1occc(=O)c1O` ?
no

What would you report for `COc1ccc(OC(F)(F)F)cc1CN[C@H]1CCCN[C@H]1c1ccccc1` ?
yes

What would you report for `CS(=O)(=O)c1ccc([C@@H](C[C@H]2CCC(=O)C2)C(=O)Nc2cnccn2)cc1Cl` ?
yes

What would you report for `CC(=O)O[C@]1(C(C)=O)CC[C@H]2[C@@H]3C=C(Cl)C4=CC(=O)[C@@H]5C[C@@H]5[C@]4(C)[C@H]3CC[C@@]21C` ?
no

What would you report for `CC(C)(C)c1ccccc1` ?
no

What would you report for `CC(=O)S[C@H](C(=O)N[C@H]1Cc2ccccc2[C@H]2CCC[C@@H](C(=O)O)N2C1=O)C(C)C` ?
no

What would you report for `NC=O` ?
no

What would you report for CCCCC(CC)COC(=O)CCCCCCCC(=O)OCC(CC)CCCC (configuration not stated) ?
no
